Target under test: D1 dopamine receptors (Rattus norvegicus)
Construct: Striatal samples from the brains of male Charles River CD rats
Assay details: D1 dopamine receptor binding: inhibition of tritiated SCH 23390 binding, rat striatal samples
Reported conditions: rat striatum, tritiated SCH 23390, pH 7.4, 37° C., 30 minutes
pKi: −log10 of the molar value.
Readout name: pKi

Compound	Readout name	Reading
CN1CCc2cc(O)c(O)cc2C1C1(c2ccccc2Br)CCC1 (stereo not drawn) [Example 1]	pKi	8.40
COc1cc2c(cc1O)C(C1(c3ccccc3OC)CC1)N(C)CC2 (stereo not drawn)	pKi	9.05
COc1cc2c(cc1O)C(C1(c3ccccc3OC)CCC1)N(C)CC2 (stereo not drawn)	pKi	8.39

====

Target under test: D1 dopamine receptors (Rattus norvegicus, UniProt P18901)
Construct: Striatal samples from the brains of male Charles River CD rats
Sequence (P18901 whole entry): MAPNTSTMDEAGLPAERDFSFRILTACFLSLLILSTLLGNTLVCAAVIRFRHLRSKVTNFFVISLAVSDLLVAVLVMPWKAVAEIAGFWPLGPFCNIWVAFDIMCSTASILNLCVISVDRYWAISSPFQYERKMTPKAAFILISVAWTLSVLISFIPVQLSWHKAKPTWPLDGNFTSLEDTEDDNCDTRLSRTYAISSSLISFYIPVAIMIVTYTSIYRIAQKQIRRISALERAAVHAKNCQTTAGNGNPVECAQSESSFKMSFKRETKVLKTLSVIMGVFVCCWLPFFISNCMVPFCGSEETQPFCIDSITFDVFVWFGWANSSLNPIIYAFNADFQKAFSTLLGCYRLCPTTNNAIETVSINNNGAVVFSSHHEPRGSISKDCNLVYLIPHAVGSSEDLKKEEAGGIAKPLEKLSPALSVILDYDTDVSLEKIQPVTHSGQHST
Assay details: D1 dopamine receptor binding: inhibition of tritiated SCH 23390 binding, rat striatal samples
Reported conditions: rat striatum, tritiated SCH 23390, pH 7.4, 37° C., 30 minutes
pKi: −log10 of the molar value.

Compound	pKi
CN1CCc2cc(F)c(O)cc2C1C1(c2ccccc2Cl)CCC1 (single isomer, unassigned; (+)) [Example 64]	8.62
CN1CCc2cc(O)c(O)cc2C1C1(c2ccc(Cl)cc2)CCCC1 (stereo not shown) [Example 14]	6.92
CN1CCc2cc(O)c(O)cc2C1C1(c2cccc(Cl)c2)CCC1 (stereo not shown) [Example 33]	7.19
CN1CCc2cc(O)c(O)cc2C1C1(c2ccccc2)CC(C)(C)C1 (stereo not shown) [Example 21]	6.70
CN1CCc2cc(O)c(O)cc2C1C1(c2cccc(C(F)(F)F)c2)CCC1 (stereo not shown) [Example 8]	6.51
CN1CCc2cc(O)c(O)cc2C1C1(c2ccc(Cl)c(Cl)c2)CCC1 (stereo not shown) [Example 18]	7.08
CN1CCc2cc(O)c(O)cc2C1C1(c2ccccc2)CCCC1 (stereo not shown) [Example 15]	6.70
COc1cc2c(cc1O)C(C1(c3ccc(Cl)cc3)CCC1)N(C)CC2 (stereo not shown) [Example 49]	8.08
CN1CCc2cc(O)c(O)cc2C1C1(c2ccc(O)cc2)CCCC1 (stereo not shown) [Example 19]	6.72
COc1ccc(C2(C3c4cc(O)c(O)cc4CCN3C)CCC2)cc1 (stereo not shown) [Example 54]	7.49
Cc1ccccc1C1(C2c3cc(O)c(O)cc3CCN2C)CCC1 (stereo not shown) [Example 4]	7.54
CN1CCc2c(Cl)ccc(O)c2C1C1(c2ccccc2)CCC1 (stereo not shown) [Example 44]	6.89
CN1CCc2cc(Cl)c(O)cc2C1C1(c2ccccc2)CCC1 (stereo not shown) [Example 52]	7.77
CN1CCc2cc(F)c(O)cc2C1C1(c2ccc(Br)cc2)CCC1 (stereo not shown) [Example 6]	8.52
CN1CCc2cc(F)c(O)cc2C1C1(c2ccc(Cl)cc2Cl)CCC1 (stereo not shown) [Example 9]	8.72
COc1cc2c(cc1O)C(C1(c3ccccc3)CCC1)N(C)CC2 (stereo not shown) [Example 55]	7.39

====

Target under test: D2 dopamine receptors (Rattus norvegicus, UniProt P61169)
Construct: Striatal samples from the brains of male Charles River CD rats; from tissue; host or cells: striatum of male Charles River CD rats (washed membrane pellet)
Sequence (P61169 whole entry): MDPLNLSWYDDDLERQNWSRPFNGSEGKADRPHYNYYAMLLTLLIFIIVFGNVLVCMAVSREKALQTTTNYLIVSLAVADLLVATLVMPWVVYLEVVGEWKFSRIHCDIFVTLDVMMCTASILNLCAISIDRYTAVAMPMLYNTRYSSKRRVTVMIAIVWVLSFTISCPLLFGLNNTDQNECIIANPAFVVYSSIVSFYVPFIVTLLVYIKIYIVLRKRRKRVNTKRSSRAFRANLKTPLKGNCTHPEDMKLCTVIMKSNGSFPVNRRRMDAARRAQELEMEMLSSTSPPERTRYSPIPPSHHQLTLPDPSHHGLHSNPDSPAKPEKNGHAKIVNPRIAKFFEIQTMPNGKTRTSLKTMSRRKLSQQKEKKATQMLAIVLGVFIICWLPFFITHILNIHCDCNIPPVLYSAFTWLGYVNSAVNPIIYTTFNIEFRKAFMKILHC
Assay details: D2 dopamine receptor binding: inhibition of tritiated (S)-sulpiride binding, rat striatal samples
Set-up: species or system rat (male Charles River CD rats)
Reported conditions: rat striatum, tritiated (S)-sulpiride, pH 7.7, 4° C., 40 minutes; > = from highest concentration which displaced ≤50% of the ligand; read-out: Ki for D2 binding
Procedure: Striatal samples from the brains of male Charles River CD rats weighing between 140-250 g were homogenised in ice-cold 50 mM Tris-HCl buffer (pH 7.4 when measured at 25° C. for D1 binding assays and pH 7.7 when measured at 25° C. for D2 binding assays) and centrifuged for 10 minutes (at 21,000 g when used for D1binding assay and 40,000 g when used for D2binding assays). The pellet was resuspended in the same buffer, again centrifuged and the final pellet stored at -80° C. […]
In this section, each of the compounds is paired with its reported Ki.
Readout name: Ki

Compound	Target under test	Reading
CN1CCc2cc(Br)c(O)cc2C1C1(c2ccccc2)CCC1 (stereo not drawn)	D2 dopamine receptors (Rattus norvegicus, UniProt P61169)	> 5 µM
CN1CCc2ccc(O)cc2C1C1(c2ccc(Cl)cc2)CCC1 (stereo not drawn)	D2 dopamine receptors (Rattus norvegicus, UniProt P61169)	> 0.5 µM
CN1CCc2cc(O)c(O)cc2C1C1(c2ccccc2)CC(C)(C)C1 (stereo not drawn)	D2 dopamine receptors (Rattus norvegicus, UniProt P61169)	> 5 µM
COc1cc2c(cc1O)C(C1(c3ccc(Cl)cc3)CCC1)N(C)CC2 (stereo not drawn)	D2 dopamine receptors (Rattus norvegicus, UniProt P61169)	> 0.5 µM
CN1CCc2cc([N+](=O)[O-])c(O)cc2C1C1(c2ccccc2)CCC1 (stereo not drawn)	D2 dopamine receptors (Rattus norvegicus, UniProt P61169)	> 5 µM
CN1CCc2cc(O)c(O)cc2C1C1(c2ccccc2C(F)(F)F)CCC1 (stereo not drawn)	D2 dopamine receptors (Rattus norvegicus, UniProt P61169)	15 µM
COc1cc2c(cc1O)C(C1(c3ccccc3)CCC1)N(C)CC2 (stereo not drawn)	D2 dopamine receptors (Rattus norvegicus, UniProt P61169)	> 0.5 µM
CN1CCc2ccc(O)cc2C1C1(c2ccccc2Cl)CC1 (stereo not drawn)	D2 dopamine receptors (Rattus norvegicus, UniProt P61169)	0.71 µM
CN1CCc2cc(F)c(O)cc2C1C1(c2ccccc2Cl)CC1 (single isomer, unassigned; (+)) [Example 62]	D2 dopamine receptors (Rattus norvegicus, UniProt P61169)	0.41 µM
CN1CCc2cc(O)c(O)cc2C1C1(c2cccc(C(F)(F)F)c2)CCC1 (stereo not drawn)	D2 dopamine receptors (Rattus norvegicus, UniProt P61169)	> 5 µM
CN1CCc2cc(Cl)c(O)cc2C1C1(c2ccccc2)CCC1 (single isomer, unassigned; (-)) [Example 59]	D2 dopamine receptors (Rattus norvegicus, UniProt P61169)	3.2 µM
CN1CCc2cc(Cl)c(O)cc2C1C1(c2ccccc2)CCC1 (stereo not drawn) [Example 28]	D2 dopamine receptors (Rattus norvegicus, UniProt P61169)	3.6 µM
CN1CCc2cc(O)c(O)cc2C1C1(c2ccccc2)CCCC1 (stereo not drawn)	D2 dopamine receptors (Rattus norvegicus, UniProt P61169)	> 5 µM
COc1cc2c(cc1O)C(C1(c3ccccc3Cl)CC1)N(CCO)CC2 (stereo not drawn)	D2 dopamine receptors (Rattus norvegicus, UniProt P61169)	> 5 µM
CCN1CCc2cc(O)c(O)cc2C1C1(c2ccc(Cl)cc2)CCC1 (stereo not drawn)	D2 dopamine receptors (Rattus norvegicus, UniProt P61169)	> 0.5 µM
